# Test system: UACC-257 melanoma
# PROTOCOL_NOTES: NCI-60 one-dose screen, 48 h (100 = growth as untreated, 0 = no growth, -100 = all killed)
# EXPERIMENTAL_SETUP: 10 µM
The panel holds about 83,000 compounds, 20% with a hit somewhere; the sample as a whole holds those more often.
Measured growth, listed per entry for reference.
Field: numeric (%). Do not append units.

Study these solved cases before continuing.
COMPOUND: CCOc1ccc2ncc(C#Cc3cncc(C(=O)Nc4ccc(CN5CCN(C)CC5)c(C(F)(F)F)c4)c3)n2n1
TARGET_OR_SYSTEM: UACC-257 melanoma
READOUT_KIND: growth
ENDPOINT_RESULT: -62.2

COMPOUND: O=C(CSc1nnc(-c2c[nH]c3ccccc23)n1-c1ccccc1)Nc1ccc(C(=O)/C=C/c2ccc(Cl)cc2)cc1
TARGET_OR_SYSTEM: UACC-257 melanoma
READOUT_KIND: growth
ENDPOINT_RESULT: 104

COMPOUND: C#CCNC(=O)CCC(=O)OC[C@]12CC[C@@H](C(=C)C)[C@@H]1C1CC[C@@H]3[C@@]4(C)CCCNC(C)(C)[C@@H]4CC[C@@]3(C)[C@]1(C)CC2 (stereo not given in full)
TARGET_OR_SYSTEM: UACC-257 melanoma
READOUT_KIND: growth
ENDPOINT_RESULT: -78.4

COMPOUND: O=C(NO)c1ccc(CNC(=O)[C@H]2Cc3c([nH]c4ccccc34)[C@H](c3ccc(Cl)cc3)N2)cc1
TARGET_OR_SYSTEM: UACC-257 melanoma
READOUT_KIND: growth
ENDPOINT_RESULT: 15.1

COMPOUND: Cc1cc(=O)oc2cc(OCCCCOc3ccc(/C=C/C(=O)Nc4ccccc4[N+](=O)[O-])cc3)ccc12
TARGET_OR_SYSTEM: UACC-257 melanoma
READOUT_KIND: growth
ENDPOINT_RESULT: 111

Request: Which growth is reported for this compound? "O=C(CSc1nnc(-c2c[nH]c3ccccc23)n1-c1ccccc1)c1ccccc1"
Response: 103

* * *

# Tested on: COLO 205 colon
# PROTOCOL_NOTES: NCI-60 one-dose screen, 48 h
# EXPERIMENTAL_SETUP: 10 µM
The panel holds about 83,000 compounds, 20% with a hit somewhere; the sample as a whole holds those more often. Calls of active or inactive are those of the source. The calls were made as follows: active = growth percent below 10; inactive = the rest.
Returns: one label drawn from TRUE for active, FALSE for inactive

Use these answered entries as a reference point.
COMPOUND_SMILES: Nc1nc(Nc2ccc(Cl)cc2)n(Cc2cccc(Br)c2)n1
ANSWER_LABEL: TRUE
//
COMPOUND_SMILES: C/C(=N\N=C\c1ccc(N(C)C)cc1)c1ccc2c(c1)Nc1ccccc1S2
ANSWER_LABEL: FALSE

Now examine the next entry.
Request: Dear all, I need the recorded test outcome for "CC(C)(C)Nc1nc2cc(Cl)c(Cl)cc2nc1S(C)(=O)=O" , thank you.
Response: FALSE

* * *

# System: KM12 colon
# PROTOCOL_NOTES: NCI-60 one-dose screen, 48 h
# EXPERIMENTAL_SETUP: 10 µM
This is part of a sample that, as a whole, favours compounds with a hit. Of some 83,000 tested, about 20% had one in any assay. The source made the active and inactive calls. The calls were made as follows: active = growth percent below 10; inactive = the rest.
Returns: one label drawn from active, inactive

COMPOUND_SMILES: CC(=O)NCC1=C(C)C=C2C(=O)[C@](C)(O)C3(CC3)C(C)=C21
ANSWER_LABEL: active

Request: Dear all, I need the recorded test outcome for "Cc1ccc(/C=C(\C#N)n2nnc3c(F)cccc32)cc1" , thank you.
Response: active

Request: Dear all, I need the recorded test outcome for "Clc1ccc(/C=N/Nc2ncnc3sc4c(c23)CCN(Cc2ccccc2)C4)cc1" , thank you.
Response: active

Request: Dear all, I need the recorded test outcome for "CCCCOc1ccc(Nc2nc3ccccc3nc2Nc2ccc(OCCCC)cc2)cc1" , thank you.
Response: inactive

* * *

# Test system: 786-0 renal
# PROTOCOL_NOTES: NCI-60 one-dose screen, 48 h (100 = growth as untreated, 0 = no growth, -100 = all killed)
# EXPERIMENTAL_SETUP: 10 µM
The panel holds about 83,000 compounds, 20% with a hit somewhere; the sample as a whole holds those more often. Activity calls are given as the source filed them. Rule for the calls: active = growth percent below 10; inactive = the rest.
Measured growth, listed per entry for reference.

Study these solved cases before continuing.
COMPOUND_SMILES: CN1CCN(c2ccc(C(=O)/C=C/c3cc(C(F)(F)F)ccc3Cl)cc2)CC1
growth: -83.1% (active)

COMPOUND_SMILES: CCOC(=O)c1sc(N/N=C(\C)c2ccc3c(c2)Nc2ccccc2S3)nc1C
growth: 33.6% (inactive)

COMPOUND_SMILES: Cc1ccn2c(C(=O)c3ccccc3)cc(-c3cc(-c4ccc(N(C)C)cc4)c(C#N)c(N)n3)c2c1
growth: 21% (inactive)

Request: Which growth is reported for this molecule? "O=c1[nH]c2ccccc2cc1CSc1ccc(Nc2nccc(-c3ccc(C(F)(F)F)cc3)n2)cc1"
Response: -49.7% (active)

Request: Which growth is reported for this molecule? "O=C(NO)c1ccc(CNc2nc(-c3ccccc3)c3ccccc3n2)cc1"
Response: 10.9% (inactive)

Request: Which growth is reported for this molecule? "CCOC(=O)N/C(=C1/OCCN1C)[P+](c1ccccc1)(c1ccccc1)c1ccccc1"
Response: 101% (inactive)

Request: Which growth is reported for this molecule? "Cc1cc(C)nc(SCC(=O)Nc2ccc(S(N)(=O)=O)cc2)n1"
Response: 105% (inactive)

Request: Which growth is reported for this molecule? "COc1ccc(C=CC(=O)c2ccc(-n3c(C)nc4c(cnn4-c4ccccc4)c3=O)cc2)cc1"
Response: 84.6% (inactive)

Request: Which growth is reported for this molecule? "CC(=O)Nc1ccc(-c2cn(-c3cccc(C(=O)Nc4ccc(Cl)c(C(F)(F)F)c4)c3)nn2)cn1"
Response: -34.4% (active)

Request: Which growth is reported for this molecule? "O=c1[nH]c2ccccc2cc1CSc1ccc(Nc2nccc(-c3ccc4c(c3)OCO4)n2)cc1"
Response: 84.7% (inactive)

Request: Which growth is reported for this molecule? "Nc1nnc(-c2c[nH]c3ncccc23)c(-c2c[nH]c3ccc(Br)cc23)n1"
Response: 40% (inactive)

* * *

# Tested on: IGROV1 ovarian
# PROTOCOL_NOTES: NCI-60 one-dose screen, 48 h (100 = growth as untreated, 0 = no growth, -100 = all killed)
# EXPERIMENTAL_SETUP: 10 µM
The panel holds about 83,000 compounds, 20% with a hit somewhere; the sample as a whole holds those more often.
Please assign N whenever growth is at or above -30%, and Y whenever it is below.

Use these answered entries as a reference point.
COMPOUND: CCN1CCN(Cc2ccc(C(=O)Nc3cccc(-c4cn(-c5ccc6oc(=O)ccc6c5)nn4)c3)cc2C(F)(F)F)CC1
ANSWER_LABEL: Y
--
COMPOUND: N[C@@H](CSSC[C@H](N)C(=O)Nc1ccc(OCC2CCCC2)cc1)C(=O)Nc1ccc(OCC2CCCC2)cc1
ANSWER_LABEL: Y
--
COMPOUND: CN(C(=O)c1ccc(C(C)(C)C)cc1)c1sc2c(c1C#N)CCC(=O)C2
ANSWER_LABEL: Y
--
COMPOUND: O=C(c1ccc(Cl)cc1)C1[C@H](c2ccccc2Br)[C@@H](c2ccccc2)NC12C(=O)Nc1ccc(Br)cc12 (stereo partly specified)
ANSWER_LABEL: N
--
COMPOUND: CCC(C)S(=O)(=O)c1oc(-c2ccc(C)cc2)nc1S(=O)(=O)c1ccccc1 (stereo unspecified)
ANSWER_LABEL: Y

Request: Dear reviewer, please state whether "COc1cc(Cn2c(C(F)(F)F)cc3c(Cl)ncnc32)ccn1" has growth strictly beneath -30%.
Response: Y

Request: Dear reviewer, please state whether COC1CC(Cn2cc(COc3ccc4ccc(=O)oc4c3)nn2)C(OCc2ccccc2)C(OCc2ccccc2)C1OCc1ccccc1 (stereo unspecified) has growth strictly beneath -30%.
Response: N

Request: Dear reviewer, please state whether "N#Cc1ccc(-c2nn(-c3ccc(C(=O)O)cc3)cc2CNc2cccc(Br)c2)cc1" has growth strictly beneath -30%.
Response: N

Request: Dear reviewer, please state whether "COc1cnc2c(c1)C(=O)c1c-2n(CCCNCCO)c(=O)c2cc(OC)c(OC)cc12" has growth strictly beneath -30%.
Response: N

Request: Dear reviewer, please state whether "CCCCCc1ccc(S(=O)(=O)Nc2cc(-c3csc(N(C)C(C)=O)n3)ccc2N2CCN(C)CC2)cc1" has growth strictly beneath -30%.
Response: N

Request: Dear reviewer, please state whether "COc1ccc2[nH]c(O)c(N=NC(=O)COc3ccc(NC(=O)Nc4ccc(Cl)cc4)cc3)c2c1" has growth strictly beneath -30%.
Response: N

* * *

Measured growth, listed per entry for reference.
# System: SN12C renal
# PROTOCOL_NOTES: NCI-60 one-dose screen, 48 h (100 = growth as untreated, 0 = no growth, -100 = all killed)
# EXPERIMENTAL_SETUP: 10 µM
This is part of a sample that, as a whole, favours compounds with a hit. Of some 83,000 tested, about 20% had one in any assay. Activity calls are given as the source filed them. How the source made its calls: active means growth percent below 10; inactive means the rest.

Study these solved cases before continuing.
MOLECULE: Cc1ccc(C(=O)N/C(=C2/OCCN2C)[P+](c2ccccc2)(c2ccccc2)c2ccccc2)cc1
ENDPOINT_RESULT: 86% (inactive)

MOLECULE: Nc1nc(Nc2ccc(Cl)cc2)n(Cc2cccc(Br)c2)n1
ENDPOINT_RESULT: -28.5% (active)

MOLECULE: CN1CCN(c2ccc(Nc3nc(NCCNC(=O)c4ccc(C(F)(F)F)cc4)c4sccc4n3)cc2)CC1
ENDPOINT_RESULT: 73.6% (inactive)

MOLECULE: COc1ccc(CCN2C(=O)/C(=C/c3csc(C#N)n3)SC2=S)cc1
ENDPOINT_RESULT: -38.2% (active)

MOLECULE: N[C@@H](CSSC[C@H](N)C(=O)Nc1ccc(OCC2CCCC2)cc1)C(=O)Nc1ccc(OCC2CCCC2)cc1
ENDPOINT_RESULT: -98.5% (active)

MOLECULE: O=C(CNc1nc(-c2ccccc2)cs1)Nc1ccc([N+](=O)[O-])cc1
ENDPOINT_RESULT: 16.9% (inactive)

Request: Form field: growth recorded for "c1ccc(C(=C(c2ccc(OCCN3CCCCC3)cc2)c2ccc(OCCN3CCCCC3)cc2)C2CCCC2)cc1" with SN12C renal (enter value)
Response: -8.67% (active)

Request: Form field: growth recorded for O=C1CCC(N2Cc3cc(NC(=O)COc4ccccc4)ccc3C2=O)C(=O)N1 (centres undefined) with SN12C renal (enter value)
Response: 73.6% (inactive)

Request: Form field: growth recorded for "CNCc1cccc2c1OCCCCCC[C@@](C)(O)CC1(CC1)S(=O)(=O)c1ccc(cc1)-c1cnc(N)c(n1)C(=O)N2" with SN12C renal (enter value)
Response: -93.9% (active)

Request: Form field: growth recorded for "COc1ccc(C(C)=C(c2ccc(OCCCN(C)C)cc2)c2ccc(OCCCN(C)C)cc2)cc1" with SN12C renal (enter value)
Response: -94.2% (active)

Request: Form field: growth recorded for "CC(=O)NCC1=C(C)C=C2C(=O)[C@](C)(O)C3(CC3)C(C)=C21" with SN12C renal (enter value)
Response: -74.7% (active)

Request: Form field: growth recorded for "CC(=O)Oc1ccccc1C(=O)Oc1ccc(C(=O)/C=C/c2ccncc2)cc1" with SN12C renal (enter value)
Response: 18.6% (inactive)

Request: Form field: growth recorded for "O=C(CNc1nc(-c2ccccc2)cs1)Nc1ccc([N+](=O)[O-])cc1Cl" with SN12C renal (enter value)
Response: 13.4% (inactive)
